This collection of values is drawn from the supplement of paper PMC9112550.

Tested on: Escherichia coli TOP10;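 further: peptides expressed intracellularly from a pBAD plasmid library in pooled LB shake-flask culture, induced with 0.3% L-arabinose, DNA abundance read by NGS, three biological replicates, DESeq2 with apeglm shrinkage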
assayName: shrunken log2 fold change of peptide-encoding DNA abundance (4.5 h post-induction vs induction); higher = less antimicrobial activity (less host growth inhibition)
conditionSet: time post-induction: 4.5 h; library: site-saturation at positions 5, 18, 19, 20
readoutKind: shrunken log2 fold change

Recorded results for 6 sequences are shown here.
recordSequence | reported
RRIRDRPPRLPRPRPRPVAHPRP | -0.0445
RRIRLRPPRLPRPRPRPELRPRP | 0.214
RRIRFRPPRLPRPRPRPITAPRP | -0.286
RRIRARPPRLPRPRPRPWNPPRP | 0.126
RRIRSRPPRLPRPRPRPKLPPRP | -0.0678
RRIRIRPPRLPRPRPRPYRCPRP | -0.0728

In: Find the recorded shrunken log2 fold change belonging to RRIRFRPPRLPRPRPRPCSDPRP and report it.
Out: -0.119

In: Find the recorded shrunken log2 fold change belonging to RRIRHRPPRLPRPRPRPHMCPRP and report it.
Out: -0.0681

In: Find the recorded shrunken log2 fold change belonging to RRIRRRPPRLPRPRPRPHKQPRP and report it.
Out: -0.00379

In: Find the recorded shrunken log2 fold change belonging to RRIRTRPPRLPRPRPRPESMPRP and report it.
Out: 0.0954

In: Find the recorded shrunken log2 fold change belonging to RRIRTRPPRLPRPRPRPDPTPRP and report it.
Out: -0.0451

In: Find the recorded shrunken log2 fold change belonging to RRIRVRPPRLPRPRPRPWSHPRP and report it.
Out: -0.125
